Molecular target: OAT3 (Homo sapiens)
Construct: host or cells: HEK293/OAT3 (hygromycin B selection)
Sequence (Q8TCC7 whole entry, species assumed): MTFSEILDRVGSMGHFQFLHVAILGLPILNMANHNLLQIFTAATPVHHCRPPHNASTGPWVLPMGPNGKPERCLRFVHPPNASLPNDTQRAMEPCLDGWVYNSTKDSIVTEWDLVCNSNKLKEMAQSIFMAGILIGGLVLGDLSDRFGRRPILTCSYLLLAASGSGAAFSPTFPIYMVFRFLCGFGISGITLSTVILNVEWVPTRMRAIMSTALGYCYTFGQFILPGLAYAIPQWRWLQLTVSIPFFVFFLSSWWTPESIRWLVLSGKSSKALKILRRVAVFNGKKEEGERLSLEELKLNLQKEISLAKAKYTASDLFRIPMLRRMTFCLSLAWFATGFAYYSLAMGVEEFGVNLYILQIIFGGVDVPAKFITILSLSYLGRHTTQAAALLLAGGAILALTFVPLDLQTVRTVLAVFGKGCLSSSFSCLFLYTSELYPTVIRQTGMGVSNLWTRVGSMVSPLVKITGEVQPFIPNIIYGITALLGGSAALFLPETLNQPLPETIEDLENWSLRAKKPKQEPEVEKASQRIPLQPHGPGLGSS
Assay: Inhibition of 6-carboxyfluorescein uptake in HEK293/OAT3 cells
Format: cell-based
Details: ratio of OAT3 IC50 to hURAT1 IC50 (selectivity)
Catalogue of IC50, OAT3/IC50, hURAT1 values
Response field accepts a number only; no unit should be typed.

The following compounds have reported results that may help.
{"columns": ["CHEMICAL STRING", "IC50, OAT3/IC50, hURAT1"],
 "data": [
  ["CCn1nc2ccc(F)cc2c1C(=O)c1cc(Br)c(O)c(Br)c1", 2.0],
  ["CCc1nc2ncccn2c1C(=O)c1cc(Br)c(O)c(Br)c1", 8.7],
  ["CCc1nc2cc(Cl)ncn2c1C(=O)c1cc(Br)c(O)c(Br)c1", 5.5],
  ["CCc1nc2ncccn2c1C(=O)c1cc(Br)c(O)c(C(F)(F)F)c1", 10.3],
  ["CCc1nc2ncc(F)cn2c1C(=O)c1cc(Br)c(O)c(C#N)c1", 3.6]
]}

Request: Looking for the measured IC50, OAT3/IC50, hURAT1 of CCc1nc2ncc(F)cn2c1C(=O)c1cc(Br)c(O)c(Br)c1 , can you help?
Response: 36.5

Request: Another compound to check: CCc1nc2cc(C(F)(F)F)ncn2c1C(=O)c1cc(Br)c(O)c(Br)c1
Response: 3.0

Request: Another compound to check: CCc1nc2ncc(F)cn2c1C(=O)c1cc(Br)c(O)c(C(F)(F)F)c1
Response: 16.2

Request: Another compound to check: CCc1nc2ncc(Br)cn2c1C(=O)c1cc(Br)c(O)c(Br)c1
Response: 8.9

Request: Another compound to check: CCc1nc2ncc(C(F)(F)F)cn2c1C(=O)c1cc(Br)c(O)c(Br)c1
Response: 21.1

Request: Another compound to check: CCc1nc2ncc(Cl)cn2c1C(=O)c1cc(Br)c(O)c(Br)c1
Response: 24.8

Request: Another compound to check: CCn1nc2ccncc2c1C(=O)c1cc(Br)c(O)c(Br)c1
Response: 3.1

Request: Another compound to check: CCc1nc2ncccn2c1C(=O)c1cc(Br)c(O)c(C#N)c1
Response: 1.4

* * *

Tested on: human hepatocytes
Assay: Metabolite study in human hepatocyte incubation system
Assay type: in vitro ADME
Details: 180 min incubation, LC-MS
MEASUREMENT LABEL: toxic metabolites of benzbromarone type

The following compounds have reported results that may help.
{"columns": ["COMPOUND", "MEASUREMENT LABEL", "RESULT"],
 "data": [
  ["CCc1nc2ncc(C(F)(F)F)cn2c1C(=O)c1cc(Br)c(O)c(Br)c1 [Example 5]", "toxic metabolites of benzbromarone type", "not observed"],
  ["CCc1nc2ncccn2c1C(=O)c1cc(Br)c(O)c(Br)c1 [Example 20]", "toxic metabolites of benzbromarone type", "not observed"],
  ["CCc1nc2cc(Cl)ncn2c1C(=O)c1cc(Br)c(O)c(Br)c1 [Example 21]", "toxic metabolites of benzbromarone type", "not observed"],
  ["CCc1nc2ncc(F)cn2c1C(=O)c1cc(Br)c(O)c(C#N)c1 [Example 14]", "toxic metabolites of benzbromarone type", "not observed"]
]}

Please look at the following compound next.
Request: Looking for the measured toxic metabolites of benzbromarone type of CCc1nc2ncc(F)cn2c1C(=O)c1cc(Br)c(O)c(Br)c1 [Example 4] , can you help?
Response: not observed

* * *

System: primary human hepatocytes
Experiment: Cytotoxicity assay on primary human hepatocytes (CellTiter-Glo, 48 h)
Type: cell-based
Settings: Hepatocyte, cell viability, 48 h incubation
Catalogue of IC50 values
Write it as a number; the unit µM goes unstated.

Request: Looking for the measured IC50 of CCc1nc2ncc(C(F)(F)F)cn2c1C(=O)c1cc(Br)c(O)c(Br)c1 , can you help?
Response: 77.8

Request: Another compound to check: CCc1nc2ncc(F)cn2c1C(=O)c1cc(Br)c(O)c(Br)c1
Response: 257

Request: Another compound to check: CCc1nc2cc(Cl)ncn2c1C(=O)c1cc(Br)c(O)c(Br)c1
Response: 347

Request: Another compound to check: CCc1oc2ccccc2c1C(=O)c1cc(Br)c(O)c(Br)c1 [Benzbromarone, reference compound]
Response: 6.65

* * *

Catalogue of IC50, OAT1/IC50, hURAT1 values
Biological target: OAT1 (Homo sapiens, UniProt Q4U2R8)
Construct: host or cells: HEK293/OAT1 (hygromycin B selection)
Sequence (Q4U2R8 whole entry, species assumed): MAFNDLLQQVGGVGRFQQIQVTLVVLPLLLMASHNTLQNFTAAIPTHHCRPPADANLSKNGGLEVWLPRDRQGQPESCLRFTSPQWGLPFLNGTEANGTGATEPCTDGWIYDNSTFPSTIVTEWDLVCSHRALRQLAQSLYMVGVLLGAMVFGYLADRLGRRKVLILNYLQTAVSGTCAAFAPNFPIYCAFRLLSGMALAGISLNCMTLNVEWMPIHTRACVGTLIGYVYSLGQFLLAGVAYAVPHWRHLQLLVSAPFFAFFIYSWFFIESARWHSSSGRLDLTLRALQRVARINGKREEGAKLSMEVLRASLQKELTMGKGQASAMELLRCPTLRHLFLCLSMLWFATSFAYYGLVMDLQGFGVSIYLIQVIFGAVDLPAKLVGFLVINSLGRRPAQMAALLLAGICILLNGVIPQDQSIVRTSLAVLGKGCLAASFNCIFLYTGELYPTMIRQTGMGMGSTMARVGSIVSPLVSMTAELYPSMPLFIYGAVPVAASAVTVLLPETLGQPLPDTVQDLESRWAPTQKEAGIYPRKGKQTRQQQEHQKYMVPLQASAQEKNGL
Test: Inhibition of 6-carboxyfluorescein uptake in HEK293/OAT1 cells
Format: cell-based
Settings: ratio of OAT1 IC50 to hURAT1 IC50 (selectivity)
Response field accepts a number only; no unit should be typed.

The following molecules have reported results that may help.
{"columns": ["MOLECULE", "STUDY SYSTEM", "RECORDED NUMBER"],
 "data": [
  ["CCc1nc2ncc(F)cn2c1C(=O)c1cc(Br)c(O)c(Br)c1 [Example 4]", "OAT1 (Homo sapiens, UniProt Q4U2R8)", 55.0],
  ["CCc1nc2ncccn2c1C(=O)c1cc(Br)c(O)c(Br)c1 [Example 20]", "OAT1 (Homo sapiens, UniProt Q4U2R8)", 8.0],
  ["CCc1nc2ncc(Cl)cn2c1C(=O)c1cc(Br)c(O)c(Br)c1 [Example 6]", "OAT1 (Homo sapiens, UniProt Q4U2R8)", 33.6],
  ["CCc1nc2ncc(C(F)(F)F)cn2c1C(=O)c1cc(Br)c(O)c(Br)c1 [Example 5]", "OAT1 (Homo sapiens, UniProt Q4U2R8)", 34.4]
]}

Please look at the following molecule next.
Request: Find the measured IC50, OAT1/IC50, hURAT1: item CCc1nc2ncccn2c1C(=O)c1cc(Br)c(O)c(C#N)c1 [Example 22] , target or system OAT1 (Homo sapiens, UniProt Q4U2R8).
Response: 2.0
